assayTarget: F508delCFTR (Homo sapiens, UniProt P13569, DEL508-508)
Construct: expressed in transfected cells; host or cells: CFBE41o- human lung-derived epithelial cells (CFBE41o-F508delCFTR-HRP), doxycycline-inducible
Sequence (P13569 with tags, fused parts or gaps DEL508-508): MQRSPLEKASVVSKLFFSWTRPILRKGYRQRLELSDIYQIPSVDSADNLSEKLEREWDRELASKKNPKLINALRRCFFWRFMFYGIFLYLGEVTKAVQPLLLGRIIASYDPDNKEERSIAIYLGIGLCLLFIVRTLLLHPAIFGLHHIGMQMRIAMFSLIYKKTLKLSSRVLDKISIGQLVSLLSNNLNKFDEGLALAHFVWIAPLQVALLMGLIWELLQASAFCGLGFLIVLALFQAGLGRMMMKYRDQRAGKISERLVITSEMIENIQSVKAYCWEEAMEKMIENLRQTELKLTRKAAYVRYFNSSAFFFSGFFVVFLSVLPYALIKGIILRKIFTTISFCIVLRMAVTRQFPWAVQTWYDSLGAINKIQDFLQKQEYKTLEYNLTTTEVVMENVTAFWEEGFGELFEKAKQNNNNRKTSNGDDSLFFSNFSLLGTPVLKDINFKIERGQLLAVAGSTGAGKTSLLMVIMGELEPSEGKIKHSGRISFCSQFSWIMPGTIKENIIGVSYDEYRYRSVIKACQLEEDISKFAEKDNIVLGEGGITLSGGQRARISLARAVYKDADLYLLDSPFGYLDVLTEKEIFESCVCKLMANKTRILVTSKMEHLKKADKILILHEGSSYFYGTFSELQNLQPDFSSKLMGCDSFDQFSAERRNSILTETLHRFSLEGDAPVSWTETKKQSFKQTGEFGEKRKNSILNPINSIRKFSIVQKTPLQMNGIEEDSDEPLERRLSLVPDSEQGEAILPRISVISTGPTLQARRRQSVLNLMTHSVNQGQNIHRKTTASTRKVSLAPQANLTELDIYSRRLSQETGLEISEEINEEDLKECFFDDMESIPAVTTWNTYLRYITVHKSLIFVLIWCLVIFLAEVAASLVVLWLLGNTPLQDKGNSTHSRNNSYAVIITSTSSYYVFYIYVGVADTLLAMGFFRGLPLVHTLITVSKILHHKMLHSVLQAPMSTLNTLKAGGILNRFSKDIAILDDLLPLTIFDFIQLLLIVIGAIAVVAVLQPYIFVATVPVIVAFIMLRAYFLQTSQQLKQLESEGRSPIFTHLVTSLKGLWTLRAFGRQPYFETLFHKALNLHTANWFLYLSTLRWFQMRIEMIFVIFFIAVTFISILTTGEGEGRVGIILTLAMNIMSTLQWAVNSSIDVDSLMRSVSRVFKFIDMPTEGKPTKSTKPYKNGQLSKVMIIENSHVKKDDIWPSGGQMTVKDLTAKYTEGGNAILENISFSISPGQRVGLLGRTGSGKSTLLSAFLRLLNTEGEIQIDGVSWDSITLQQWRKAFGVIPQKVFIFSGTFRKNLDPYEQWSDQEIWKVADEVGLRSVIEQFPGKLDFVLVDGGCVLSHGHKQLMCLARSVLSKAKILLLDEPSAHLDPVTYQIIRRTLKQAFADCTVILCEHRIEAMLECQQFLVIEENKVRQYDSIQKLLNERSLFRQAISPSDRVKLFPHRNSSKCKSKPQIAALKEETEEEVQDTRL
methodNotes: Cell Surface Expression-Horse Radish Peroxidase (CSE-HRP) assay, test compound without co-corrector;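 note: percent of on-plate 2 µM positive control corrector response over DMSO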
Type: cell-based
particulars: maximum at any tested concentration, normalized to positive control, without co-corrector
// reported Emax for each item listed

Examples with their reported Emax follow.
INSERT INTO assay_data (molecule, assaytarget, result) VALUES
  ('CCCC(=O)Nc1ccc(S(=O)(=O)NC(=O)C2CCc3c(OC)cccc32)cc1 (centres unmarked)', 'F508delCFTR (Homo sapiens, UniProt P13569, DEL508-508)', '< 50%'),
  ('COc1ccc(Cl)c2c1CC[C@H]2C(=O)NS(=O)(=O)c1cccc2ccccc12 (single isomer, unassigned)', 'F508delCFTR (Homo sapiens, UniProt P13569, DEL508-508)', '≥ 150%'),
  ('COc1cccc2c1CCC2C(=O)NS(=O)(=O)c1ccc(CN(C)C)cc1 (centres unmarked)', 'F508delCFTR (Homo sapiens, UniProt P13569, DEL508-508)', '< 50%');

Now for a further molecule.
Lab note: COc1ccc(/C=C/c2ccccc2)c2c1C(C(=O)NS(=O)(=O)c1cccc3ccccc13)CCC2 (centres unmarked) gave Emax of < 50%
